Tested On: T1, 4H3858-bH
T1 chain: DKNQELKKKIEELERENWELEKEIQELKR
Experiment: two-hybrid library CCNG1;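 note: natural log of median RNA to DNA barcode read ratio; higher means stronger binding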
Property Label: interaction score
Write no unit; give the number alone.

[
  {
    "Binder": "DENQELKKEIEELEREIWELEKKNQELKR [4H1544-bH]",
    "Value Observed": 0.651
  },
  {
    "Binder": "DKNQELKKEIEELERKIWELKKENQELKR [4H3628-bH]",
    "Value Observed": 0.42
  },
  {
    "Binder": "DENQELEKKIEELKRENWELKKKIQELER [4H1373-bH]",
    "Value Observed": 0.654
  },
  {
    "Binder": "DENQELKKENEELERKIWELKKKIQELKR [4H1710-bH]",
    "Value Observed": -0.238
  },
  {
    "Binder": "DKNQELKKEIEELERENWELKKKIQELER [4H3613-bH]",
    "Value Observed": 0.0148
  },
  {
    "Binder": "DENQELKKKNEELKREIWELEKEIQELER [4H1985-bH]",
    "Value Observed": -1.02
  }
]

Kindly review the next binder as well.
Using the record for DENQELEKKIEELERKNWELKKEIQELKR [4H1338-bH] , state its measured interaction score.
1.35
